I'd appreciate it if you could supply NanoBRET Fold Response values for the items below.
# measurement.target: AGTR1 (Homo sapiens)
# Construct: purchased Promega (in-house HiBiT-GPCR construct library, NanoBRET)
# Sequence (P30556 whole entry): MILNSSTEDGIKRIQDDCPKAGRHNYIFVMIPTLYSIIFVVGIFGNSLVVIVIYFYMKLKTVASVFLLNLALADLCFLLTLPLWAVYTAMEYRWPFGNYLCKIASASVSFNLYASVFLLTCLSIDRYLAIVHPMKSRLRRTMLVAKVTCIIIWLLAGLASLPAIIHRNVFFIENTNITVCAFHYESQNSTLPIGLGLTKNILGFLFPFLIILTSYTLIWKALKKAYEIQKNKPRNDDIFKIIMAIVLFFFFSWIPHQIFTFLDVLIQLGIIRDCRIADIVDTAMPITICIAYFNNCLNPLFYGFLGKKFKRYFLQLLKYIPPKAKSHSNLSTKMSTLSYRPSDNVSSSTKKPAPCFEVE
# measurement.description: NanoBRET screen HiBiT-AGTR1 in HEK293
# Format: binding
# experimental.parameters: AGTR1; tracer 1μM

Some entries whose results are on file:
>  <compound>
Cc1nc2n(c(=O)c1CCN1CCC(c3noc4cc(F)ccc34)CC1)CCCC2OC(=O)NCCOCCOCCOCCOCCNC(=O)CCc1ccc2n1[B-](F)(F)[N+]1=C(c3ccc[nH]3)C=CC1=C2 (centres unmarked)

>  <measured>
0.98

$$$$
>  <compound>
O=C(CCc1ccc2n1[B-](F)(F)[N+]1=C(c3ccc[nH]3)C=CC1=C2)NCc1ccc(C(=O)NCCOCCC(=O)N[C@@H]2CC[C@@]3(O)[C@H]4Cc5ccc(O)c6c5[C@@]3(CCN4CC3CC3)[C@H]2O6)cc1 [Naltrexone-3-NB590]

>  <measured>
0.93

$$$$
>  <compound>
COc1ccccc1N1CCN(CCCCN2C(=O)c3ccc(CNC(=O)CCOCCOCCOCCOCCNC(=O)CCc4ccc5n4[B-](F)(F)[N+]4=C(c6ccc[nH]6)C=CC4=C5)cc3C2=O)CC1

>  <measured>
1.11

$$$$
>  <compound>
O=C(CCc1ccc2n1[B-](F)(F)[N+]1=C(c3ccc[nH]3)C=CC1=C2)NCCOCCOCCNC(=O)OCCOCCN1CCN(C2=Nc3ccccc3Sc3ccccc32)CC1

>  <measured>
0.92

$$$$
>  <compound>
N#CN=C(NCCCOc1cccc(CN2CCCCC2)c1)NCCNC(=O)CCOCCOCCOCCOCCNC(=O)CCc1ccc2n1[B-](F)(F)[N+]1=C(c3ccc[nH]3)C=CC1=C2

>  <measured>
0.96

$$$$

For each of the items listed, what is its NanoBRET Fold Response?
1. Cc1cc2c(s1)Nc1ccccc1N=C2N1CCN(CCCNC(=O)CCOCCOCCOCCOCCNC(=O)CCc2ccc3n2[B-](F)(F)[N+]2=C(c4ccc[nH]4)C=CC2=C3)CC1
2. COc1ccccc1N1CCN(CCCCN2C(=O)c3ccc(CNC(=O)CCOCCNC(=O)c4ccc(CNC(=O)CCc5ccc6n5[B-](F)(F)[N+]5=C(c7ccc[nH]7)C=CC5=C6)cc4)cc3C2=O)CC1

OUT:
1. 0.95
2. 1.04

For each of the items listed, what is its NanoBRET Fold Response?
1. O=C(CCOCCOCCOCCOCCNC(=O)CCc1ccc2n1[B-](F)(F)[N+]1=C(c3ccc[nH]3)C=CC1=C2)NCCCN1CCN(C2=Nc3ccccc3Oc3ccc(Cl)cc32)CC1
2. CC(C)N(CC[C@H](c1ccccc1)c1cc(CCNC(=O)CCOCCOCCOCCOCCNC(=O)CCc2ccc3n2[B-](F)(F)[N+]2=C(c4ccc[nH]4)C=CC2=C3)ccc1O)C(C)C
3. CCCn1c(=O)c2[nH]c(-c3ccc(OCC(=O)NCCNC(=O)CCOCCNC(=O)c4ccc(CNC(=O)CCc5ccc6n5[B-](F)(F)[N+]5=C(c7ccc[nH]7)C=CC5=C6)cc4)cc3)nc2n(CCC)c1=O
4. CC(C)N(CC[C@H](c1ccccc1)c1cc(CCNC(=O)c2ccc(CNC(=O)CCc3ccc4n3[B-](F)(F)[N+]3=C(c5ccc[nH]5)C=CC3=C4)cc2)ccc1O)C(C)C

OUT:
1.08
1.00
1.19
1.00
